Data origin: ChEMBL document CHEMBL1139261

experiment: Inhibition of tubulin assembly
Reported endpoint: IC50 (µM)
I only need the number, in µM, no unit after it.

Sample records with IC50:
* COc1c(O)c(OC)c(C(=O)/C=C/c2ccccc2)c(O)c1OC [PEDICIN] | 300
* COc1ccc(/C=C/C(=O)c2c(O)c(OC)c(OC)c(OC)c2OC)cc1O | 13
* COc1ccc(/C=C/C(=O)c2cc(OC)c(OC)c(OC)c2)cc1O | 4.3
* COc1ccc(/C=C/C(=O)c2c(O)c(OC)c(OC)c(OC)c2OC)cc1N | 14

Pending compound:
Please list IC50 recorded for the compound `COc1ccc(/C=C/C(=O)c2cc(OC)c(OC)c(OC)c2)cc1N`
3.7
